Quick note: these are IC50 numbers for system: IRAK4 (Homo sapiens, UniProt Q9NWZ3)

>>> result("CN(C)[C@H]1CC[C@H](Oc2ncnc3sc4c(c23)CC(CCO)CC4)CC1 (stereo partly shown)")
"< 5 µM"
>>> result("CN[C@H]1CC[C@H](Oc2ncnc3sc4c(c23)[C@@H](C[C@H](O)C(N)=O)CC4)CC1")
"< 5 µM"
>>> result("C[C@]1(N)CC[C@H](Oc2ncnc3sc4c(c23)[C@@H](CC(N)=O)CC4)CC1")
"5 to 20 µM"

Please find the next compound below.
Which IC50 is reported with IRAK4 (Homo sapiens, UniProt Q9NWZ3) for this entry: CN[C@]1(C)CC[C@@H](Oc2ncnc3sc4c(c23)[C@@H](CC(N)=O)CC4)CC1 ?
< 5 µM

###

Parameter: IC50. Scope: all listed entries.
- Tested on: THP-1 cells
- test.name: LPS induced cytokine (TNFα and IL8) production assay in THP-1 cells
- Format: cell-based
- condition.info: Homo sapiens, 300 ng/mL LPS, read-out: TNFα production IC50

The following compounds have reported results that may help.
>>> result("CC[C@@H](O)C[C@H]1CCc2sc3ncnc(O[C@H]4CC[C@H](N(C)C)CC4)c3c21 [Compound I-106]")
"500 to 1000 nM"
>>> result("CN(C)[C@H]1CC[C@H](Oc2ncnc3sc4c(c23)CN(S(C)(=O)=O)CC4)CC1 [Compound I-168]")
"≥ 5000 nM"
>>> result("CC[C@@H](O)C[C@H]1CCc2sc3ncnc(O[C@H]4CC[C@H](N(C)CC(=O)N5CCCC5)CC4)c3c21 [Compound I-71]")
"500 to 1000 nM"
>>> result("CN(C)[C@H]1CC[C@H](Oc2ncnc3sc4c(c23)[C@@H](CCC#N)CC4)CC1 [Compound I-42]")
"≤ 500 nM"
>>> result("Cn1cc(Nc2nc(O[C@H]3CC[C@H](N4CCOCC4)CC3)c3c4c(sc3n2)CC[C@@H]4CC(N)=O)cn1 [Compound I-235]")
"≤ 500 nM"

Param readout = IC50; param system = THP-1 cells; param query = CN(C)[C@H]1CC[C@H](Oc2ncnc3sc4c(c23)[C@@H](CC(F)(F)C(N)=O)CC4)CC1 [Compound I-144] ; response: value
≤ 500 nM

How about this compound: CN(C)[C@H]1CC[C@H](Oc2ncnc3sc4c(c23)[C@@H](C[C@H](O)C(=O)NCO)CC4)CC1 [Compound I-100]
1000 to 5000 nM

And the next one, CO[C@H](C[C@H]1CCc2sc3ncnc(O[C@H]4CC[C@H](N(C)C)CC4)c3c21)C(N)=O [Compound I-77] ?
1000 to 5000 nM

Same thing, different compound: NC(=O)[C@H]1CCc2sc3ncnc(O[C@H]4CC[C@H](N5CCOCC5)CC4)c3c2C1 [Compound I-220]
≤ 500 nM

Then this compound: CN(C)[C@H]1CC[C@H](Oc2ncnc3sc4c(c23)[C@@H](CC(N)=O)CC4)CC1 [Compound I-43]
500 to 1000 nM

Another compound to look at: NC(=O)[C@H]1CCc2sc3ncnc(N[C@H]4CC[C@H](N5CCOCC5)CC4)c3c2C1 [Compound I-207]
1000 to 5000 nM

Can you check CN(C)[C@H]1CC[C@H](Oc2ncnc3sc4c(c23)CC(CCO)CC4)CC1 (stereo partly drawn) [Compound I-108] next?
1000 to 5000 nM

Then this compound: NC(=O)[C@@H](O)C[C@H]1CCc2sc3ncnc(O[C@H]4CC[C@H](N)CC4)c3c21 [Compound I-135]
500 to 1000 nM

###

- tested.on: IRAK4 (Homo sapiens)
- Sequence (Q9NWZ3 1-460): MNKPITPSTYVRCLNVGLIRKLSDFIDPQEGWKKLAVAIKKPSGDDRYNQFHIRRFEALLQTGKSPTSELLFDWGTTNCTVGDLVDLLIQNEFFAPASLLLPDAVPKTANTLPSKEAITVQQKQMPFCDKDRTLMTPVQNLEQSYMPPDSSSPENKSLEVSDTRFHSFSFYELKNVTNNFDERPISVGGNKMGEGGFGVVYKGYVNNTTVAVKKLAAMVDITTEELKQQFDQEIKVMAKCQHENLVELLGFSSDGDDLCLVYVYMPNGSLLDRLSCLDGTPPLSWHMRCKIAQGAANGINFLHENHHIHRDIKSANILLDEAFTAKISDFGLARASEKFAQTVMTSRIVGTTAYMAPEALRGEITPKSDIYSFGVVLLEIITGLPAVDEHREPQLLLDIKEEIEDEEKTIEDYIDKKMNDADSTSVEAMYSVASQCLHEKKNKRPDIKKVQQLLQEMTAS
experimental.readout: IC50

>>> result("CN(C)[C@H]1CC[C@H](Oc2ncnc3sc4c(c23)[C@@H](CC(C#N)C(N)=O)CC4)CC1 (mixture of isomers)")
"< 5 µM"

// fetch IRAK4 (Homo sapiens) IC50 for CN(C)[C@H]1CC[C@H](Oc2ncnc3sc4c(c23)[C@@H](C[C@@H](O)C(F)(F)F)CC4)CC1
< 5 µM

###

pIC50 overview
- Test system: THP-1 cells
- test.name: LPS induced cytokine (TNFα and IL8) production assay in THP-1 cells
- Assay type: cell-based
- condition.info: Homo sapiens, 300 ng/mL LPS, read-out: TNFα production IC50
pIC50: −log10 of the molar value.

>>> result("CN(C)[C@H]1CC[C@H](Oc2ncnc3sc4c(c23)[C@@H](CC(O)C(N)=O)CC4)CC1 (stereo partly shown)")
"≥ 6.30"
>>> result("NC(=O)C[C@H]1CCc2sc3ncnc(O[C@H]4CC[C@H](N5CCCCC5)CC4)c3c21")
"≥ 6.30"

# input molecule: CN(CC(=O)N1CCCC1)[C@H]1CC[C@H](Oc2ncnc3sc4c(c23)[C@@H](CCC(N)=O)CC4)CC1 ; wanted: its pIC50
≤ 5.30

What about this molecule? CCN[C@H]1CC[C@H](Oc2ncnc3sc4c(c23)[C@@H](C[C@H](O)C(N)=O)CC4)CC1
6.00 to 6.30

###

- Test system: hPBMC
- test.name: In vitro LPS/R848/CpG/IL-1β-induced cytokine production assay in hPBMC
- Format: cell-based
- condition.info: Homo sapiens, CpG 0.5 uM, read-out: TNF-α production IC50
pIC50: −log10 of the molar value.
experimental.readout: pIC50

>>> result("NC(=O)[C@@H](O)C[C@H]1CCc2sc3ncnc(O[C@H]4CC[C@H](N5CCOCC5)CC4)c3c21")
"≥ 6.60"

// next entry
Look at this compound and give its reported pIC50. NC(=O)C[C@H]1CCc2sc3ncnc(O[C@H]4CC[C@H](N5CCOCC5)CC4)c3c21
6.30 to 6.60

###

- Test system: THP-1 cells
- test.name: LPS induced cytokine (TNFα and IL8) production assay in THP-1 cells
- Assay type: cell-based
- condition.info: Homo sapiens, 300 ng/mL LPS, read-out: TNFα production IC50
pIC50: −log10 of the molar value.
Here the recorded pIC50 is given for each entry.

Solved cases (6 shown):
>>> result("CN(CC(=O)N1CCCC1)[C@H]1CC[C@H](Oc2ncnc3sc4c(c23)[C@@H](CC(N)=O)CC4)CC1")
"5.30 to 6.00"
>>> result("CN(C)[C@H]1CC[C@H](Nc2ncnc3sc4c(c23)C[C@@H](C(N)=O)CC4)CC1")
"≤ 5.30"
>>> result("CN(C)[C@H]1CC[C@H](Oc2ncnc3sc4c(c23)[C@@H](CC(C#N)C(N)=O)CC4)CC1 (mixture of isomers)")
"6.00 to 6.30"
>>> result("CN(C)[C@H]1CC[C@H](Oc2ncnc3sc4c(c23)[C@@H](CCO)CC4)CC1")
"5.30 to 6.00"
>>> result("NC(=O)[C@@H](O)C[C@H]1CCc2sc3ncnc(O[C@H]4CC[C@H](N5CCOCC5)CC4)c3c21")
"≥ 6.30"
>>> result("CN(C)[C@H]1CC[C@H](Oc2nc(Nc3ccccc3)nc3sc4c(c23)C(CC(N)=O)CC4)CC1 (stereo partly shown)")
"6.00 to 6.30"

Here's the next entry for you.
Looking for the measured pIC50 of CN(C)[C@H]1CC[C@H](Nc2ncnc3sc4c(c23)CC(C)(C)OC4)CC1 , can you help?
≤ 5.30

###

- tested.on: UniProt:Q9NWZ3
- Sequence (Q9NWZ3 1-460): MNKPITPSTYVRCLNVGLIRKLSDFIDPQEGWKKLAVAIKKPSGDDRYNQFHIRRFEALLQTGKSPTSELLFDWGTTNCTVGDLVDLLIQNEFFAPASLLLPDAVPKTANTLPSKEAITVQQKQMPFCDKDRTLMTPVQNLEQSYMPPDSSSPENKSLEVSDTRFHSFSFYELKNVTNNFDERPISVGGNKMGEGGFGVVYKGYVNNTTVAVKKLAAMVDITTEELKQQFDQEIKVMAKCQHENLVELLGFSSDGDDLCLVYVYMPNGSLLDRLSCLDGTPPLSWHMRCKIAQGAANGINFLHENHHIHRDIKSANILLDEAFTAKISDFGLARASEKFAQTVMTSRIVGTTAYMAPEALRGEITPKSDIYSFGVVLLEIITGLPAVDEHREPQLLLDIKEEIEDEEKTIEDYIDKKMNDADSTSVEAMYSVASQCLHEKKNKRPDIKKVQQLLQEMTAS
pIC50: −log10 of the molar value.
experimental.readout: pIC50

Some solved cases for reference:
>>> result("CN(C)[C@H]1CC[C@H](Oc2ncnc3sc4c(c23)[C@@H](C[C@@H](O)C(N)=O)CC4)CC1")
"> 5.30"
>>> result("CN(CC(=O)N1CCCC1)[C@H]1CC[C@H](Nc2ncnc3sc4c(c23)[C@@H](CCO)CC4)CC1")
"> 5.30"
>>> result("CN(C)[C@H]1CC[C@H](Nc2ncnc3sc4c(c23)C(CC(=O)N2CC[C@@H](O)C2)CC4)CC1 (stereo partly drawn)")
"< 4.30"
>>> result("CCN[C@H]1CC[C@H](Oc2ncnc3sc4c(c23)[C@@H](CC(N)=O)CC4)CC1")
"> 5.30"
>>> result("NC(=O)C[C@H]1CCc2sc3ncnc(O[C@H]4CC[C@H](N5CCNCC5)CC4)c3c21")
"> 5.30"

Looking for the measured pIC50 of CN(CC(=O)N1CCCC1)[C@H]1CC[C@H](Nc2ncnc3sc4c(c23)[C@@H](CC(N)=O)CC4)CC1 , can you help?
> 5.30

Thanks! And CNC(=O)N1Cc2sc3ncnc(O[C@H]4CC[C@H](N5CCOCC5)CC4)c3c2C1 ?
> 5.30
